// data source = ChEMBL document CHEMBL3885861

Species on record: Rattus norvegicus
Test: Open TG-GATES - Regimen: Daily Repeat
Assay type: toxicity, organism-based, Sprague-Dawley
Design: regimen Daily Repeat, gender Male, age 6 weeks
Settings: in vivo, po, 1000 mg/kg, […], tissue Plasma, route gavage, dose level High, time 28 day
READOUT NAME: IP

The compound listed as `CNC(=C[N+](=O)[O-])NCCSCc1ccc(CN(C)C)o1` shows IP equal to 7.2 mg/dL

###

Examples of molecules with documented log10 TBIL follow.
Species: Rattus norvegicus
Test: Open TG-GATES - Regimen: Daily Repeat
Assay type: toxicity, organism-based, Sprague-Dawley
Design: regimen Daily Repeat, gender Male, age 6 weeks
Conditions: in vivo, po, 1000 mg/kg, […], tissue Plasma, route gavage, dose level High, time 28 day
The base-10 logarithm of TBIL, taken with TBIL in mg/dL, is what appears here.

The molecule listed as Cc1nnc2n1-c1ccc(Cl)cc1C(c1ccccc1Cl)=NC2 [TRIAZOLAM] shows log10 TBIL equal to -1.34

The molecule listed as O=C(OC[C@H]1O[C@@H](OC(=O)c2cc(O)c(O)c(OC(=O)c3cc(O)c(O)c(O)c3)c2)[C@H](OC(=O)c2cc(O)c(O)c(OC(=O)c3cc(O)c(O)c(O)c3)c2)[C@@H](OC(=O)c2cc(O)c(O)c(OC(=O)c3cc(O)c(O)c(O)c3)c2)[C@@H]1OC(=O)c1cc(O)c(O)c(OC(=O)c2cc(O)c(O)c(O)c2)c1)c1cc(O)c(O)c(OC(=O)c2cc(O)c(O)c(O)c2)c1 [TANNIC ACID] shows log10 TBIL equal to -0.40

The molecule listed as CCOc1ccc(NC(C)=O)cc1 [PHENACETIN] shows log10 TBIL equal to -1.00

The molecule listed as COC(=O)C1=C(C)NC(C)=C(C(=O)OC)C1c1ccccc1[N+](=O)[O-] [NIFEDIPINE] shows log10 TBIL equal to -1.55

The molecule listed as CN/C(=N/CCSCc1nc[nH]c1C)NC#N [CIMETIDINE] shows log10 TBIL equal to -0.70

The molecule listed as CNC(=C[N+](=O)[O-])NCCSCc1ccc(CN(C)C)o1 [RANITIDINE] shows log10 TBIL equal to -0.70
